Molecular target: T1, human TREM2-Fc (human, UniProt Q9NZC2 19-174)
T1 construct: also called hTREM2; not shown: Fc part (captured by anti-human IgG1 Fc or protein A)
T1 sequence: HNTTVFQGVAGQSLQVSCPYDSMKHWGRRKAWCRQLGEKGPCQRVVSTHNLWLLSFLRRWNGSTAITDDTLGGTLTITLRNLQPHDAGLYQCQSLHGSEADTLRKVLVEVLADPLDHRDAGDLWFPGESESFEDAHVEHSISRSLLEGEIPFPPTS
Assay: SPR (Biacore T200), 37 C; TREM2-Fc on protein A chip, soluble Fab
assay_metric: kon (M⁻¹ s⁻¹)
Could you give me the number in M⁻¹ s⁻¹? Just the number is fine.

binder="Para.09 Fab with the 3.27H7 light chain (Fab, V domains shown, Fab fragment; also called Para.09 (3.27H7); Para.09-L27H7) VH: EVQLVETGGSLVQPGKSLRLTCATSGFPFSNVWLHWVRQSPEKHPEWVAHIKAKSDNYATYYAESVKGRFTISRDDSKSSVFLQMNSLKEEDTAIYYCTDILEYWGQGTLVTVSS VL: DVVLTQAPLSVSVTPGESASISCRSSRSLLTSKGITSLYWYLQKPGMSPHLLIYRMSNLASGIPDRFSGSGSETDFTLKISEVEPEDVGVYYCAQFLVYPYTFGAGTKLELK" result_units="M⁻¹ s⁻¹" reading=2.3e+06
binder="hPara.09.v2 Fab (Fab, V domains shown, also called Para.09-H5/3.27H7-L6) VH: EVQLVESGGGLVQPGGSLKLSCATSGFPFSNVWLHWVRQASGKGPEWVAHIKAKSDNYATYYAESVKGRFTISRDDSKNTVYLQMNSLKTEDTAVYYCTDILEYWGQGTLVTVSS VL: DVVMTQSPLSLPVTPGEPASISCRSSRSLLTSKGITSLYWYLQKPGQSPQLLIYRMSNLASGIPDRFSGSGSGTDFTLKISRVEAEDVGVYYCAQFLVYPYTFGQGTKVEIK" result_units="M⁻¹ s⁻¹" reading=3e+06
binder="h3.10C2.v1 Fab (Fab, V domains shown, also called 3.10C2-H1/3.27H7-L6) VH: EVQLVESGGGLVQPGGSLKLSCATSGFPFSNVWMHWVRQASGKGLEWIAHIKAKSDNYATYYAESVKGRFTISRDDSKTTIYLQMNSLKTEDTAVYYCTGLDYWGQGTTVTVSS VL: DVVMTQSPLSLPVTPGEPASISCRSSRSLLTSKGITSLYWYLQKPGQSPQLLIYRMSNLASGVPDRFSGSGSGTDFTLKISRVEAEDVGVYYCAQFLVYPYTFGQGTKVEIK" result_units="M⁻¹ s⁻¹" reading=1.5e+06

Now examine the next entry.
Prompt line: Output kon of 3.10C2 Fab (Fab, V domains shown, also called 3.10C2 (3.10C2); Rat3.10C2) VH: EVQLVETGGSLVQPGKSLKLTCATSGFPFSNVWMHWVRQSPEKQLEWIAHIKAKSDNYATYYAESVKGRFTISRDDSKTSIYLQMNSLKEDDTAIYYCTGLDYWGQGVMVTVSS VL: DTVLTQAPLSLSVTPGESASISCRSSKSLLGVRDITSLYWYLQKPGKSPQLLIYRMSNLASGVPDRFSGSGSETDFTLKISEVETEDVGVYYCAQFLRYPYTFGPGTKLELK
Response line: 910000
